read-out: Plasminogen activator inhibitor-1 (PAI1), SERPINE1 (gene 5054); test: BSK_BE3C_PAI1: BioMAP Diversity Plus: BE3C Assay for Plasminogen activator inhibitor-1 (PAI1) Biomarker Activity (AID 2283037); settings: primary human bronchial epithelial cells; actives raise or lower the signal
Active and inactive are the calls of the source. Rule for the calls: active = hit-call score of the fitted dose curve at least 0.9, where 1 is the maximum; inactive = score below 0.9.
# valid calls are T for active, F for inactive; nothing else

Some solved entries appear below for comparison.
Tell me the assay call for c1nc[nH]n1 please.
F

Tell me the assay call for O=P(Oc1ccccc1)(Oc1ccccc1)Oc1ccccc1 please.
T

Tell me the assay call for O=P(OCC(Br)CBr)(OCC(Br)CBr)OCC(Br)CBr (stereo not drawn) please.
F

Tell me the assay call for CC(C)Nc1ccc(Nc2ccccc2)cc1 please.
F

Tell me the assay call for OCC(F)(F)OC(F)(F)C(F)(F)OC(F)(F)C(F)(F)OC(F)(F)CO please.
F

Next:
Tell me the assay call for CCCCOCCOP(=O)(OCCOCCCC)OCCOCCCC please.
F

Tell me the assay call for O=c1ssc(Cl)c1Cl please.
T

Tell me the assay call for O=[N+]([O-])c1ccccc1 please.
F
